# test_system: T1, human GPC2 on cells (SH-SY5Y, IMR-32, HEK293T/hGPC2) (human, UniProt Q8N158 24-554)
# T1 construct: whole, on cells; GPI-anchored proteoglycan on the cell surface; also called cell-surface human GPC2; GPC2 positive cells
# T1 sequence (looked up): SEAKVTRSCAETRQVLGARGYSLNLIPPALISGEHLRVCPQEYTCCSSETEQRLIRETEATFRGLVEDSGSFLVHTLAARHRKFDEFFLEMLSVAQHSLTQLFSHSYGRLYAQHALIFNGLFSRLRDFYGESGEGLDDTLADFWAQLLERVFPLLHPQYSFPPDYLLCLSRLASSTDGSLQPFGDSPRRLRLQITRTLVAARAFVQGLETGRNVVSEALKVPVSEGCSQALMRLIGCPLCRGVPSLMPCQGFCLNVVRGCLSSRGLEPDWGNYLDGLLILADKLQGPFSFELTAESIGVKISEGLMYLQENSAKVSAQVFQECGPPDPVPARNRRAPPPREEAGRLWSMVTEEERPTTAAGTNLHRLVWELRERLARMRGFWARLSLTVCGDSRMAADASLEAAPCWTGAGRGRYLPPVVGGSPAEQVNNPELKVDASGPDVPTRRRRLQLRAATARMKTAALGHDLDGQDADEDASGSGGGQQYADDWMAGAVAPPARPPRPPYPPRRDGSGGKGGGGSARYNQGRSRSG
# protocol_text: flow cytometry on SH-SY5Y cells, VHH-His detected with anti-His tag antibody (iFluor 647), median fluorescence intensity, four-parameter fit
Exercise: for every item that follows, state its recorded EC50 (read off the curve).

Input: Need EC50 (read off the curve), item AS71529VH6-AS70950VH6 anti-GPC2 VHH-His protein (VHH, Tandem of two different anti-GPC2 VHH domains) EVQLVESGGGLVQPGGSLRLSCAVSEYRYSSRYCMGWFRQAPGKGREGVAAIDSNGSADYVDSVKGRFTISKDNSKNTLYLQMNSLRAEDTAMYYCAADHLAYDCYSGATSVFRYWGQGTLVTVSSGGGGSGGGGSGGGGSEVQLVESGGGLVQPGGSLRLSCAISEFTYKNTCVGWFRQAPGKGREGVAAIDSDGNTNYVDSVKGRFTISQDNSKNTVYLQMNSLRAEDTAMYYCAAGAYCGRLLLWIGNYAYWGQGTLVTVSSHHHHHH
Output: ~3 nM

Input: # lookup: EC50 (read off the curve) of AS72669VH6 anti-GPC2 VHH-His protein (VHH) VHH: QVQLVESGGGVVQPGGSLRLSCAASRFTYSSYCMGWIRQAPGKGREGVAIFYTGGGRTYYADSVKGRFTISQDNSKNTLYLQMNSLRAEDTAVYYCVAGFYCSGGYWEGDFGYWGQGTLVTVSS
Output: ~2 nM

Input: Fill in: EC50 (read off the curve) of AS70950VH6 anti-GPC2 VHH-His protein (VHH) VHH: EVQLVESGGGLVQPGGSLRLSCAISEFTYKNTCVGWFRQAPGKGREGVAAIDSDGNTNYVDSVKGRFTISQDNSKNTVYLQMNSLRAEDTAMYYCAAGAYCGRLLLWIGNYAYWGQGTLVTVSS is ___
Output: ~3 nM

Input: # input binder: AS71529VH6 anti-GPC2 VHH-His protein (VHH) VHH: EVQLVESGGGLVQPGGSLRLSCAVSEYRYSSRYCMGWFRQAPGKGREGVAAIDSNGSADYVDSVKGRFTISKDNSKNTLYLQMNSLRAEDTAMYYCAADHLAYDCYSGATSVFRYWGQGTLVTVSS ; wanted: its EC50 (read off the curve)
Output: ~100 nM
